Target: T1, human TSLP recombinant protein (human, UniProt Q969D9 29-159, biotinylated in the blocking and cell-binding assays (sites not given))
T1 construct: also called biotinylated human TSLP protein
Assay: SPR BIAcore T200, antibody captured on Protein A, human TSLP injected
Endpoint label: koff (s⁻¹)
Entry rule: numbers only, all in s⁻¹.

Binder	koff, s⁻¹
Ab24 (antibody, V domains shown, Humanized; also called h39G5VHv5/h71G4VKv1; h39G5VHv5/h71G4VKv1 hIgG1) VH: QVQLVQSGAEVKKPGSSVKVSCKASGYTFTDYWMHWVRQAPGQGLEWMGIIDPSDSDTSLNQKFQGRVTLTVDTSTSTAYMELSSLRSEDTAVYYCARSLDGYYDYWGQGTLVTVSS VL: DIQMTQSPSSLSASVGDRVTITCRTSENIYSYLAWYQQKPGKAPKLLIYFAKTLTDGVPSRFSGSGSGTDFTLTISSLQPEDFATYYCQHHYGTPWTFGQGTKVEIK	3.99e-08
Ab22 (antibody, V domains shown, Humanized; also called h39G5VHv1/h71G4VKv1; h39G5VHv1/h7IG4VKv1 hIgG1) VH: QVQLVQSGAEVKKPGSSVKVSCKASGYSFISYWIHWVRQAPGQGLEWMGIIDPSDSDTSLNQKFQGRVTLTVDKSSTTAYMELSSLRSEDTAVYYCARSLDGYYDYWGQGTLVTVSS VL: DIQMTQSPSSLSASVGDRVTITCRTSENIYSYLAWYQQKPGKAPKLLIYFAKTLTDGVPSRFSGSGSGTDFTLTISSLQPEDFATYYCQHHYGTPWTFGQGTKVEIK	1.07e-07

Inquiry: Given the binder Ab23 (antibody, V domains shown, Humanized; also called h39G5VHv2/h71G4VKv1; h39G5VHv2/h71G4VKv1 hIgG1) VH: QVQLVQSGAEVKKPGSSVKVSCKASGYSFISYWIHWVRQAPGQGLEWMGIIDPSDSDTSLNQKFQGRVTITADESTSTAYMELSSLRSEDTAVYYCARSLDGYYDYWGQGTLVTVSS VL: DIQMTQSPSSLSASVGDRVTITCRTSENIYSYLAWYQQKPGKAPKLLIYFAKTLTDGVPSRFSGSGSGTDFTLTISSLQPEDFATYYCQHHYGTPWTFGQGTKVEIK , write its reported koff.
Reply text: 1.61e-07

Taken from patent US20230029835A1.
